test: Cmax in C57BL/6 mouse at 1 mg/kg,po measured upto 24 hrs; type: ADME, organism-based; design: dose 1 mg/kg, time < 24 hrs, route po; details: in vivo
Measured parameter: Cmax (ng/mL)

{"columns": ["Smiles entry", "Recorded result"],
 "data": [
  ["COc1ncc(C(=O)N2CCN(C(=O)/C=C/c3ccc4c(c3)OC(F)(F)O4)CC2)cn1", 878]
]}

----------
assay: Half life in ICR mouse at 10 mg/kg,po measured upto 24 hrs; type: ADME, organism-based; settings: in vivo
Measured parameter: half-life (h)

{"columns": ["Smiles entry", "Recorded result"],
 "data": [
  ["O=C(/C=C/c1ccc2c(c1)OC(F)(F)O2)N1CCN(C(=O)N2CCC2)CC1", 1.43]
]}

----------
test: Oral bioavailability in ICR mouse at 10 mg/kg measured upto 24 hrs; type: ADME, organism-based; conditions: in vivo
Measured parameter: bioavailability (%)

{"columns": ["Smiles entry", "Result unit", "Recorded result"],
 "data": [
  ["O=C(/C=C/c1ccc2c(c1)OC(F)(F)O2)N1CCN(C(=O)N2CCC2)CC1", "%", 116]
]}

----------
Here, each record is paired with measured AUC(0-t) at 24 h data.
test: AUClast in ICR mouse at 1 mg/kg,iv measured upto 24 hrs; type: ADME, organism-based; set-up: dose 1 mg/kg, time < 24 hrs, route iv; details: in vivo

{"columns": ["Smiles entry", "AUC(0-t) at 24 h / ng·h/mL"],
 "data": [
  ["COc1ncc(C(=O)N2CCN(C(=O)/C=C/c3ccc4c(c3)OC(F)(F)O4)CC2)cn1", 4190],
  ["O=C(/C=C/c1ccc2c(c1)OC(F)(F)O2)N1CCN(C(=O)N2CCC2)CC1", 586]
]}

----------
test: Half life in dog liver microsomes; assay type: ADME, Canis lupus familiaris, Microsome

{"columns": ["Smiles entry", "half-life"],
 "data": [
  ["COc1ncc(C(=O)N2CCN(C(=O)/C=C/c3ccc4c(c3)OC(F)(F)O4)CC2)cn1", "> 3.11 h"]
]}

----------
assay: Oral bioavailability in dog at 10 mg/kg measured upto 24 hrs; format: ADME, organism-based, Canis lupus familiaris; details: in vivo

{"columns": ["Smiles entry", "bioavailability"],
 "data": [
  ["COc1ncc(C(=O)N2CCN(C(=O)/C=C/c3ccc4c(c3)OC(F)(F)O4)CC2)cn1", "> 100%"]
]}

----------
experiment: Volume of distribution at steady state in ICR mouse at 1 mg/kg,iv measured upto 24 hrs; type: ADME, organism-based; conditions: in vivo, read-out: Vdss

{"columns": ["Smiles entry", "Vd, L/kg"],
 "data": [
  ["O=C(/C=C/c1ccc2c(c1)OC(F)(F)O2)N1CCN(C(=O)N2CCC2)CC1", 0.94]
]}
